For each entry below, report its T/C value.
Test system: nude mice, LX-1 lung xenograft intrarenal, tumor weight T/C
assay.comment: NCI In Vivo Anticancer Drug Screen. Data for tumor model Human Lung LX-1 Xenograft (intrarenal inoculation) in NU/NU Swiss (nude) mice
test.context: endpoint: mean tumor weight change; dose: 2400.0 mg/kg/injection; schedule: Q04DX003 (sc); vehicle: Klucel (hydroxypropylcellulose) (HPC); higher = larger tumour
Records with an inconclusive call do not appear.

QUERY: Return value of T/C for input CC12CC(C(=O)O)C3(O)CC(C)(C1)CC(C)(C2)C3 (stereo not given) (tested in a mixture with another compound) , no commentary.
RESULT: 105 % of control

QUERY: Return value of T/C for input CCC(=O)O[C@H]1CC[C@H]2[C@@H]3CCC4=CC(=O)CC[C@]4(C)[C@H]3CC[C@]12C , no commentary.
RESULT: 69 % of control

QUERY: Return value of T/C for input CCc1ccccc1N1CCN(C(=O)c2cc(OC)c(OC)c(OC)c2)CC1 , no commentary.
RESULT: 30 % of control

QUERY: Return value of T/C for input N#CCCN(C(=S)Nc1cccc(C(F)(F)F)c1)C1CCCCC1 , no commentary.
RESULT: 80 % of control

QUERY: Return value of T/C for input CN(C)C(=O)SC1=C(c2c(Cl)cccc2Cl)C(=O)c2ccccc21 , no commentary.
RESULT: 92 % of control
